System: IL-2-induced IFN-γ production
Test: IL-2-Induced IFN-γ Production in the Mouse
Assay type: in vivo
Conditions: po, 1 h, by gavage one hour before IL-2, serum IFN-γ, female BALB/c mice, read-out: inhibition of IL-2-induced IFN-gamma production
Assay metric: inhibition at 30 mg/kg

| Compound | Assay metric | Result |
| --- | --- | --- |
| Cn1c(=O)n(C2CCOc3c(F)cc(F)cc32)c2nc(-n3cnc4ccc(C#N)cc43)ncc21 (stereo not drawn) [Example 501] | inhibition at 30 mg/kg | > 40% |

*Q* Would you kindly share the measured inhibition at 30 mg/kg for Cn1c(=O)n(C2CCOc3ccc(F)cc32)c2nc(-n3cnc4ccc(C#N)cc43)ncc21 (stereo not drawn) [Example 504] ?
*A* > 40%

*Q* And what about the compound O=c1[nH]c2cnc(-n3cnc4ccccc43)nc2n1[C@@H]1CCOc2c(F)cccc21 [Example 16] ?
*A* > 40%

*Q* Now consider O=c1[nH]c2cnc(-n3cnc4cc(F)ccc43)nc2n1[C@@H]1CCOc2c(F)cccc21 [Example 28] .
*A* > 40%

*Q* Cn1c(=O)n([C@@H]2CCOc3c(F)cccc32)c2nc(-n3cnc4ccc(C#N)cc43)ncc21 [Example 505] , same question.
*A* > 40%

*Q* Next record, please: C[C@@H]1CCN(C(=O)CC#N)C[C@@H]1N(C)c1ncnc2[nH]ccc12 [CP690550]
*A* 96%
